Reported pIC50 values are given for each entry in this list.
target: cSrc (Homo sapiens, UniProt P12931); assay: c-Src enzyme inhibition (FRET); assay type: biochemical; conditions: Table 4a1
Sequence (P12931 whole entry): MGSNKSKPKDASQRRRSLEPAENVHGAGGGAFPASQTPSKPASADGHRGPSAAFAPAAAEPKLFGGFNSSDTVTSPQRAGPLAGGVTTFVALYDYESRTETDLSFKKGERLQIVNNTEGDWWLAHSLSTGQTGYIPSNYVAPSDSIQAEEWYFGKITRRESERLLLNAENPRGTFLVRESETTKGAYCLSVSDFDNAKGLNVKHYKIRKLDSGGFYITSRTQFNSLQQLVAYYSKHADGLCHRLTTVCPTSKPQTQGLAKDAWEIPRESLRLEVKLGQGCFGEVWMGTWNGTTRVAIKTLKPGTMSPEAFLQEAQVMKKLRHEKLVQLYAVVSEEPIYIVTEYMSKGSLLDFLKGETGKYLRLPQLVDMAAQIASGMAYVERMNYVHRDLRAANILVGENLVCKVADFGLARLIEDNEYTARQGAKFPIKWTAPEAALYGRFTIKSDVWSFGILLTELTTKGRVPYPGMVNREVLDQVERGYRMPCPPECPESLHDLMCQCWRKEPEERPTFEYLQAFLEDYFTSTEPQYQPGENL
pIC50: −log10 of the molar value.

1) COc1ccc(C(=O)NCCO)cc1Nc1nccc(Oc2ccc(NC(=O)Nc3cc(C(C)C)nn3-c3ccc(C)cc3)c3ccccc23)n1	> 8.70
2) Cc1ccc(-n2nc(C3(C)COC3)cc2NC(=O)Nc2ccc(Oc3ccnc(Nc4cccc(C(=O)NCCN5CCOCC5)c4)n3)c3ccccc23)cc1	> 9.00
3) COc1ccc(-n2nc(C3CCCO3)cc2NC(=O)Nc2ccc(Oc3ccnc(Nc4cc(OC)cc(C(=O)NCCN5CCOCC5)c4)n3)c3ccccc23)cc1 (stereo not shown)	> 9.00

From here, focus on the item given below.
Tell me measured pIC50 for COc1ccc(-n2nc(C(C)(C)C)cc2NC(=O)Nc2ccc(Oc3cc(Nc4cc(OC)cc(C(=O)NCCN5CCOCC5)c4)ncn3)c(C)c2C)cc1 please.
> 8.89
